measured-quantity: logP
Output spec: single numeric token, no unit.

OCc1cc(Cl)cc(Cl)c1 :: 2.9
CN(C)P1(=O)N(C)CCN1C :: 0.02
c1ccc2c(c1)ccc1nc3ccc4ccccc4c3cc12 :: 5.63

Incoming: What value of measured logP is listed for OCCC(F)(F)C(F)(F)C(F)(F)C(F)(F)C(F)(F)C(F)(F)C(F)(F)C(F)(F)F ?
Outgoing: 5.58

Incoming: Requested field: logP. Item: CC1=NS(=O)(=O)c2ncccc2N1
Outgoing: -0.91

Incoming: State the recorded logP for this entry: CCCN1C(=O)C(=Cc2ccc([N+](=O)[O-])o2)SC1=NC(C)=O
Outgoing: 1.17

Incoming: Could you share which logP value was measured for CCCOC(=O)NCCCN(C)C ?
Outgoing: 1.12

Incoming: Given C=CCSCC1Nc2cc(Cl)c(S(N)(=O)=O)cc2S(=O)(=O)N1 (configuration not stated) , state its recorded logP.
Outgoing: 1.17

Incoming: Could you share which logP value was measured for CC(C)(C)[C@@H](O)[C@H](Cc1ccc(Cl)cc1Cl)n1cncn1 ?
Outgoing: 3.8
